Origin of the recorded values: patent US20230203146A1

molecular target: FLAG tagged human Ang2 (Alexis Biochemicals) (human) (UniProt O15123); assay: competition ELISA, FLAG-hAng2 (0.02 nM) on coated hTie2/Fc
Sequence (O15123 19-496): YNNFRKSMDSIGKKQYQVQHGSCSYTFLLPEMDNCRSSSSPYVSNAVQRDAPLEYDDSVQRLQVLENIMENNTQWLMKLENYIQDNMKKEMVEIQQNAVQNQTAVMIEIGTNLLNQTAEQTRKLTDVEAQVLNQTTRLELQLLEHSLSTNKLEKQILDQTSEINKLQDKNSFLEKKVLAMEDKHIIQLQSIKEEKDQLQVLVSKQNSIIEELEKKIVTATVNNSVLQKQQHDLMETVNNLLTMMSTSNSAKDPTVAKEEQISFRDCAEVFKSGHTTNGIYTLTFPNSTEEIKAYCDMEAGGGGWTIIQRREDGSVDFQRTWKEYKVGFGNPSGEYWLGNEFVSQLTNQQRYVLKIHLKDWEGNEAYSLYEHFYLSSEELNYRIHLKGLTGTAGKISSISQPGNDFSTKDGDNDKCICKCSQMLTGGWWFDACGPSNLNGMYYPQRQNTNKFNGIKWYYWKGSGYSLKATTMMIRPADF
TEST_READOUT: IC50 (nM)

- VHH 11B07 (VHH, not shown: small tags and cut ends) VHH: EVQLVESGGGLVQVGDSLRLSCAASGRTFSTYLMVGWFRQAPGKEREFAAGIWSSGDTAYADSVRGRFTISRDNAKNTVYLQMNSLKTEDTAVYYCAGSYDGNYYIPGFYKDWGQGTQVTVSS: 5.4
- VHH 21G10 (VHH, not shown: small tags and cut ends) VHH: EVQLVESGGGLVQAGGSLRLSCAASGFTLDDYAIGWFRQAPGKEREGVSCISSSDGSTTYADSVKGRFTVSSDNAKNTVYLQMNSLKPEDTAVYYCAAGLRGRYYRGTYSLVCAPYEYDFWGQGTQVTVSS: 6.2
